# AC50 per record follows
system: E. coli mixed culture (wild-type RFP + h34-humanized GFP), total OD600 growth, 24 h; assay: selective ribosome h34 site antibacterial activity – h34 mutant GFP vs wild-type RFP, cherry-pick, OD600, dose response (AID 977625); conditions: E. coli h34-humanized GFP strain growth, fluorescence, 24 h; measured here: total culture OD600 growth
Inconclusive results are not listed.
The response must be a number in µM with no trailing unit.

# chemical_string, AC50 [µM]
data = [
    ("Cc1ccc(C)c(NC(=O)CSc2nc3nc(-c4cccs4)cc(C(F)(F)F)c3c(=O)[nH]2)c1", 36.2),
    ("CCN(CC)CCn1c2ccccc2c2nc3ccc([N+](=O)[O-])cc3cc21", 4.35),
]

Request: Field request: AC50 | item: O=C(O)c1cc([N+](=O)[O-])ccc1NCc1ccccc1
Result: 20.1

###

system: E. coli mixed culture (wild-type RFP + h34-humanized GFP), total OD600 growth, 24 h; test: selective ribosome h34 site antibacterial activity – h34 mutant GFP vs wild-type RFP, cherry-pick, OD600, dose response (AID 977625); conditions: E. coli h34-humanized GFP strain growth, fluorescence, 24 h; measured here: total culture OD600 growth
Results filed as inconclusive are left out.
Collected AC50 values appear next to each entry.
The figure you give is taken to be in µM; do not add the unit.

Consider the worked cases shown below.
# compound, value_unit, AC50
records = [
    ("CC1(Cc2ccccc2C#N)C(=O)Nc2cc(-c3ccccc3Cl)ccc21 (stereo not drawn)", "µM", 24.8),
    ("COc1cc2c(cc1[N+](=O)[O-])-c1ccc([N+](=O)[O-])cc1C2", "µM", 0.378),
]

API: the following record is the query input.
Request: # query: AC50 | item COc1ccc(-n2cc(-c3ccccc3)c3c(N4CCOCC4)ncnc32)cc1 | system: E. coli mixed culture (wild-type RFP + h34-humanized GFP), total OD600 growth, 24 h
Result: 42.2

###

assay: selective ribosome h34 site antibacterial activity – h34 mutant GFP vs wild-type RFP, cherry-pick, OD600, dose response (AID 977625); conditions: E. coli h34-humanized GFP strain growth, fluorescence, 24 h; at 50 µM (top of the series)
Inconclusive results are not listed.
measurement_type: activity change, negative = inhibition
API note: the answer field is a bare number with no unit suffix.

As a guide, the following entries are already answered.
# chemical_string, activity change, negative = inhibition
data = [
    ("COc1cccc(C(=O)Nc2cc(C)nn2-c2ccccc2)c1OC", 18.9),
    ("Cc1noc(C)c1NC(=O)Nc1ccc2c(c1)C(=O)N([C@H](C)CO)C[C@@H](C)[C@@H](CN(C)C(=O)Nc1ccc3c(c1)OCO3)OCCCC[C@@H](C)O2", 0.093),
    ("COc1ccc2[nH]c3c(=O)n(CCCCC(=O)NCCC(C)C)c(=S)[nH]c3c2c1", -5.72),
    ("COc1ccc(Cn2c(-c3ccc(Cl)cc3)c[n+]3ccccc23)cc1", 30.2),
    ("CCOC(=O)c1c(NC(=O)Cc2cccs2)sc(C)c1C", 12.4),
]

Request: Name the reported activity change, negative = inhibition value associated with the molecule C[C@@H]1CCCCO[C@H](CN(C)C(=O)CCCN(C)C)[C@H](C)CN([C@@H](C)CO)C(=O)c2cc(NC(=O)Nc3cccc4ccccc34)ccc2O1
Result: 21.7

Request: Fill in: activity change, negative = inhibition of Cc1ccc(C)c(NC(=O)CSc2nc3nc(-c4cccs4)cc(C(F)(F)F)c3c(=O)[nH]2)c1 is ___
Result: -48.2

Request: Would you mind telling me what activity change, negative = inhibition value was observed for COc1cc2c(cc1[N+](=O)[O-])-c1ccc([N+](=O)[O-])cc1C2 ?
Result: -48.1

Request: What does the record list as activity change, negative = inhibition for Cc1ccc(S(=O)(=O)N2CC[C@H]3[C@H](CO)Nc4ccc(Br)cc4[C@H]32)cc1 ?
Result: 7.09

###

test system: E. coli mixed culture (wild-type RFP + h34-humanized GFP), total OD600 growth, 24 h; experiment: selective ribosome h34 site antibacterial activity – h34 mutant GFP vs wild-type RFP, cherry-pick, OD600, dose response (AID 977625); conditions: E. coli h34-humanized GFP strain growth, fluorescence, 24 h; measured here: total culture OD600 growth
Inconclusive results are not listed.
Listing of entries alongside the reported AC50.

For orientation, consider the following solved cases.
# chemical_string, AC50
records = [
    ("C[C@@H]1CCCCO[C@H](CN(C)C(=O)CCCN(C)C)[C@H](C)CN([C@@H](C)CO)C(=O)c2cc(NC(=O)Nc3cccc4ccccc34)ccc2O1", "> 100 µM"),
    ("CCOC(=O)c1c(NC(=O)Cc2cccs2)sc(C)c1C", "> 100 µM"),
]

We next turn to a different compound, shown below.
Request: What reported AC50 corresponds to COc1cccc(C(=O)Nc2cc(C)nn2-c2ccccc2)c1OC on E. coli mixed culture (wild-type RFP + h34-humanized GFP), total OD600 growth, 24 h?
Result: > 100 µM

Source listed as PubChem BioAssay AID977625.
